Sourced from PubChem BioAssay (NCI)

Test system: SNB-19 CNS
Experimental Protocol: NCI tumour cell line growth inhibition, 48 h
Metric: TGI

COc1ccccc1/C=C(\C#N)C(=O)c1ccccc1; > 100 µM
CN(C)Cc1cc(N=Nc2cccc(Cl)c2)ccc1O; 51.3 µM
CC(=O)Nc1ccc(N=C2C(c3ccccc3)=C(SC3=C(c4ccccc4)C(=Nc4ccc(NC(C)=O)cc4)c4ccccc43)c3ccccc32)cc1; > 100 µM
C=C(C)C1Cc2c(cc(OC)c3c(=O)c4cccc(O)c4oc23)O1 (configuration not stated); 98.4 µM
CN(C)c1nc(N(C)C)nc(N(C)CN(C)c2ccc(Cl)cc2)n1; > 100 µM
CC1=NNC(=O)C1C1CC(c2c[nH]c3ccccc23)=NNC1=S (configuration not stated); > 100 µM
COc1cccc(C2C3=C(COC3=O)N(CCO)c3cc(OC)ccc32)c1 (configuration not stated); > 100 µM
O=c1[nH]cnc2c1sc1nc3ccccc3n12; > 100 µM
CCC1C(=O)OCc2c1cc1n(c2=O)Cc2cc3ccccc3nc2-1 (configuration not stated); > 100 µM
CN(C)c1nc2oc(-c3ccccc3)c(-c3ccccc3)c2c2nncn12; > 100 µM
CCN1/C(=C/C=C/c2n(-c3ccccc3)c3ccc(-c4nc5ccccc5s4)cc3[n+]2CC)N(c2ccccc2)c2ccc(-c3nc4ccccc4s3)cc21; > 50 µM
COC(c1cccc(C(O)(C(F)(F)F)C(F)(F)F)c1)(C(F)(F)F)C(F)(F)F; 34.5 µM
CC(C)(C)OC(=O)CC(NC(=O)OC(C)(C)C)C(=O)N[C@@H]1CCCC[C@H]1C(=O)OCc1ccccc1 (some centres not stated); 69.3 µM
COc1ccc(/C(Cl)=C(/c2ccc(O)cc2)c2ccc(OCCN(C)C)cc2)cc1; 27.1 µM
CCN(CC)CCCn1cnc2ncccc2c1=O; > 100 µM
Cn1cc(C2=C(c3cccc(N)c3)C(=O)NC2=O)c2ccccc21; > 25 µM
COc1ccc(-n2cc(-c3cc(OC)c(OC)c(OC)c3)nc2SCc2ccccc2)cc1; > 100 µM
CCOC(=O)c1sc2ncn(Cc3cccc(Br)c3)c(=O)c2c1C; > 100 µM
CN(C)CCN(C)CC1COC(C)(C)O1 (configuration not stated); > 100 µM
COc1cc2cc(C(=O)CCC(=O)O)sc2cc1OC; > 100 µM
O=C(O)C1=CCCc2ccc3ccccc3c21; > 100 µM
O=C(c1ccco1)N(Cc1ccco1)C(=S)Nc1ccccc1; > 100 µM

* * *

System: DU-145 prostate
Experimental Protocol: NCI tumour cell line growth inhibition, 48 h
The following compounds are listed with their measured TGI values.
Metric: TGI

CC/C(=C(/c1ccc(OCCN(C)C)cc1)c1ccc(OC(=O)CCC(=O)c2c(C)[nH]c(/C=C3\N=C(c4ccc[nH]4)C=C3OC)c2C)cc1)c1ccccc1; 16.8 µM
Cn1ccc(C(=O)N2CCSC2=S)c(OCc2ccccc2)c1=O; > 100 µM
C/C=C/C/C=C/CCC(=O)[C@H]1O[C@H]1C(N)=O; 27.1 µM
COc1ccc2c(c1)=C(C=C1C=CN(O)C=C1)C(=O)N=2; > 100 µM
CS(=O)(=O)OCC1OC(n2ccc(NC(=O)c3ccccc3)nc2=O)CC1OS(C)(=O)=O (stereo not given); > 100 µM
Cn1c(N)c(C(N)=O)[nH]c1=S; > 100 µM
CN(C)c1nc2oc(-c3ccccc3)c(-c3ccccc3)c2c2nncn12; > 100 µM
Cc1ccc2c(c1)c1nc3cc(C)c(C)cc3nc1n2CCN(C)C; 10.6 µM
Cc1cc2c(cc1Cl)SC(c1ccccc1)C(=O)NS2(=O)=O (stereo not given); > 100 µM
CCCc1cc(O)c2c3c(c(=O)oc2c1)CN(C)CC3; > 100 µM

* * *

System: HS 578T breast
Experimental Protocol: NCI tumour cell line growth inhibition, 48 h
Metric: log10 of TGI (log10 of the value in µM)

N#Cc1ncc(-c2ccc(C(F)(F)F)cc2)c(NCc2cc(C(F)(F)F)cc(C(F)(F)F)c2)n1; 1.78
CC(C)CCC[C@@H](C)[C@H]1CC[C@H]2[C@@H]3CC[C@H]4C[C@H](N)CC[C@]4(C)[C@H]3CC[C@]12C; 1.88
CCCCOc1ccc(NC(=O)n2nc(N)c3ccccc32)cc1; 1.73
C=C(C)C1Cc2c(cc(OC)c3c(=O)c4cccc(O)c4oc23)O1 (stereo unspecified); 1.69
COC(=O)C(C)(C)OCc1ccc(C2NC(=O)N(c3cccc(Cl)c3)C(=O)N2c2cccc(Cl)c2)cc1 (stereo unspecified); 1.65
O=C1C2C(C(=O)[N]1[Hg][c]1cccs1)C1(Cl)C(Cl)=C(Cl)C2(Cl)C1(Cl)Cl (stereo unspecified); 1.06
Cn1cc(C2=C(c3cn(CCO)c4ccccc34)C(=O)NC2=O)c2ccccc21; 1.16
CC(C)c1c(C(=O)Nc2ccccc2)c(-c2ccccc2)c(-c2ccc(F)cc2)n1CC[C@@H]1CC=CC(=O)O1; 0.78
CC(=O)N1N=C(c2ccc(Nc3nc(Nc4ccc(Cl)cc4)nc(Nc4ccc(Cl)cc4)n3)cc2)CC1c1ccc([N+](=O)[O-])cc1 (stereo unspecified); 1.99
Cc1ccc(S(=O)(=O)n2c3c(c4ccccc42)CCN2C(=O)C(S(=O)(=O)c4ccccc4)=CCC32)cc1 (stereo unspecified); 0.96
CC(=O)c1c(SCCN2CCCC2)n(-c2ccccc2)c(=S)n(-c2ccccc2)c1=O; 1.73
COC(=O)C1=C(C)NC(C)=C(C(=O)OC)C1/C=C(\Cl)c1ccc(Cl)c(Cl)c1; 1.52

* * *

Test system: RXF 393 renal
Experimental Protocol: NCI tumour cell line growth inhibition, 48 h
Metric: log10 of TGI (log10 of the value in µM)

C/C=C/C/C=C/CCC(=O)[C@H]1O[C@H]1C(N)=O; 1.28
CCCCCCCCCCCCCCCc1ccc(OCC(O)CO)cc1 (stereo unspecified); 1.55
Cc1ccc(N=NC2S/C(=C(\C#N)c3nc4ccccc4[nH]3)N(c3ccccc3)C2=O)cc1 (stereo unspecified); 1.91
c1ccc2c(c1)Nc1ccccc1[P+]21c2ccccc2Nc2ccccc21; -0.05
Cc1ccc2c(c1)c1nc3cc(C)c(C)cc3nc1n2CCN(C)C; 0.53

* * *

The following molecules are listed with their measured GI50 values.
Test system: HS 578T breast
Experimental Protocol: NCI tumour cell line growth inhibition, 48 h
Metric: GI50

CC(C)(O)C#Cc1ccc(/C=C/C(=O)c2ccccc2)s1; 25.5 µM
C#CCN(Cc1nc2cc(C(F)(F)F)ccc2nc1-c1ccccc1)c1ccc(OC(F)(F)F)cc1; > 100 µM
COc1cc(-c2nc3sccn3c2-c2ccnc(NCCNS(=O)(=O)c3ccc(Cl)cc3)n2)ccc1F; 8.05 µM
CC(C)c1c(C(=O)Nc2ccccc2)c(-c2ccccc2)c(-c2ccc(F)cc2)n1CC[C@@H]1CC=CC(=O)O1; 2.14 µM
Nc1ccccc1-c1ccc([N+](=O)[O-])cc1; 50.8 µM
CCCCOc1ccc(NC(=O)n2nc(N)c3ccccc32)cc1; 20.7 µM
Cc1cc2cc3cc(C)c(N(C)C)cc3[n+](C)c2cc1N(C)C; 2.35 µM
c1ccc(C2CC(c3cccc(Nc4ccncc4)c3)=NN2c2ccccc2)cc1 (stereo not given); 1.55 µM
S=C(N/N=C(/c1ccccc1)c1ccccn1)N1CCCCC1; 1.3 µM
COC(=O)C1=C(C)NC(C)=C(C(=O)OC)C1/C=C(\Cl)c1ccc(Cl)c(Cl)c1; 12.2 µM

* * *

The following molecules are listed with their measured TGI values.
Tested on: SK-OV-3 ovarian
Experimental Protocol: NCI tumour cell line growth inhibition, 48 h
Metric: TGI

C=[N+](CNC(=O)CNC(=O)C(Cc1ccc([N+](=O)[O-])cc1)NC(=O)OC(C)(C)C)C(=O)CNC(=O)C(Cc1ccc([N+](=O)[O-])cc1)NC(=O)OC(C)(C)C (centres undefined); > 100 µM
CC(C)c1nc2cc(C(F)(F)F)ccc2[nH]c1=O; > 100 µM
CC(C)[C@H]1CC[C@H]2[C@@H](CC[C@H]3[C@](C)(CN)CCC[C@]23C)C1; 16.3 µM
CC(=O)NNc1nc(C)c(C(/C=C/c2ccc([N+](=O)[O-])cc2)=N/N)s1; > 100 µM

* * *

The following compounds are listed with their measured GI50 values.
Tested on: T-47D breast
Experimental Protocol: NCI tumour cell line growth inhibition, 48 h
Metric: GI50

COc1cc2cc(C(=O)CCC(=O)O)sc2cc1OC; > 100 µM
O=c1ccc(N=Nc2ccc([N+](=O)[O-])cc2)ccc1O; 4.31 µM
O=S(=O)(Cc1ccc(Cl)cc1Cl)c1ccc(Cl)cc1; 6.02 µM
CN(c1cc2ncc(=O)[nH]c2cc1NC(N)=NCc1ccc(Cl)cc1)C1CCCCC1; 5.82 µM
Oc1ccc(CN2CCC(N3CCOCC3)CC2)c2cccnc12; 35.5 µM
Clc1cc2c(cc1Cl)Oc1cc(Cl)c(Cl)cc1O2; > 0.625 µM
O=C1C2C(C(=O)[N]1[Hg][c]1cccs1)C1(Cl)C(Cl)=C(Cl)C2(Cl)C1(Cl)Cl (configuration not stated); 0.57 µM
COc1cc2c3c(n(CCCN(CCN)CCCn4c5c(c6cc(OC)c(OC)cc6c4=O)C(=O)c4cc6c(cc4-5)OCO6)c(=O)c2cc1OC)-c1cc2c(cc1C3=O)OCO2; 0.457 µM
CC(=O)Nc1ccc(/C=C/C(=O)c2ccccc2)cc1; 13.8 µM
Cc1ccc(NC(=O)Cc2ccc(/C=C/C(=O)c3ncc[nH]3)cc2)cc1; 6.47 µM
CCOC(=O)c1sc2ncn(Cc3cccc(Br)c3)c(=O)c2c1C; 36.5 µM
CC(C)c1c(C(=O)Nc2ccccc2)c(-c2ccccc2)c(-c2ccc(F)cc2)n1CC[C@@H]1CC=CC(=O)O1; 2.58 µM
CC(C)(O)C#Cc1ccc(/C=C/C(=O)c2ccccc2)s1; 14.5 µM
Cn1cc(C2=C(c3cccc(N)c3)C(=O)NC2=O)c2ccccc21; 14.3 µM
O=c1c2c3c(sc2n2c(-c4cc(-c5ccccc5)no4)nnc2n1Cc1ccccc1)CCCC3; 3.55 µM
N#C/C(=N\Nc1ccc(Cl)cc1)C(=O)Nc1cc(-c2ccccc2)nn1-c1ccccc1; 2.01 µM
CN(Cc1ccc(Cl)cc1)c1ccc(CO)c(Cl)c1; 0.764 µM
